# Tested target: RIPK1 kinase (Homo sapiens (Human), UniProt Q13546)
# Sequence (Q13546 1-327): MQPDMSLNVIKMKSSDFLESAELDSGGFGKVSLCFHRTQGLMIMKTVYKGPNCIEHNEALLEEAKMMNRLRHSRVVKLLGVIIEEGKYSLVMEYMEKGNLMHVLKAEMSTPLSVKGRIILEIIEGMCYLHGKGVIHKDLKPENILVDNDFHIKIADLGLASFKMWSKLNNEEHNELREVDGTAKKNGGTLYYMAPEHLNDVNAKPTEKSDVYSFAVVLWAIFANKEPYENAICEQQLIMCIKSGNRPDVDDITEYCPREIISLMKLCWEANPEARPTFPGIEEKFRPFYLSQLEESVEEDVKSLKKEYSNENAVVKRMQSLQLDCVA
Measured parameter: pIC50
Answers are plain numbers, as −log10 of the molar value.

I'd like to know its pIC50. The compound in question is `Nc1nc2cc(-c3ccc4c(c3)C(=O)N(Cc3cc(OC(F)(F)F)ccc3F)CCO4)ccn2n1` 7.64
